The reported measurements were obtained from ChEMBL document CHEMBL2016455.

# Tested on: Liver
# procedure-details: Drug uptake in rat liver per mg tissue at 10 mg/kg, po after 6 hrs
# Assay type: ADME, organism-based
# Set-up: dose 10 mg/kg, route oral
# condition: in vivo
compounds and their reported Drug uptake

molecule-smiles	Drug uptake / ng/g
Cc1nc(NCCCC(F)(F)F)nc(N[C@@H]2C[C@H](CO)[C@@H](O)[C@H]2O)c1-c1nc2ccccc2s1	2230
CCOCCNc1nc(C)c(-c2nc3ccccc3s2)c(N[C@@H]2C[C@H](CO)[C@@H](O)[C@H]2O)n1	400
Cc1nc(N[C@@H](C)C(F)(F)F)nc(N[C@@H]2C[C@H](CO)[C@@H](O)[C@H]2O)c1-c1nc2ccccc2s1	6570
Cc1nc(NC(C)C)nc(N[C@@H]2C[C@H](CO)[C@@H](O)[C@H]2O)c1-c1nc2ccccc2s1	3320
Cc1nc(NCCN2CCOCC2)nc(N[C@@H]2C[C@H](CO)[C@@H](O)[C@H]2O)c1-c1nc2ccccc2s1	370
Cc1nc(NC(C)(C)C)nc(N[C@@H]2C[C@H](CO)[C@@H](O)[C@H]2O)c1-c1nc2ccccc2s1	1240
CCNc1nc(C)c(-c2nc3ccccc3s2)c(N[C@@H]2C[C@H](CO)[C@@H](O)[C@H]2O)n1	515
OC[C@H]1C[C@@H](Nc2nc(NCC(F)(F)F)nc(C3CC3)c2-c2nc3ccccc3s2)[C@H](O)[C@@H]1O	12800
CNc1nc(C)c(-c2nc3ccccc3s2)c(N[C@@H]2C[C@H](CO)[C@@H](O)[C@H]2O)n1	75
Cc1nc(NCc2ccsc2)nc(N[C@@H]2C[C@H](CO)[C@@H](O)[C@H]2O)c1-c1nc2ccccc2s1	75

* * *

Consider the following compounds and their measured log10(AUC(0-t) at 6 h) readings.
# procedure-details: AUC (0 to 6 hrs) in rat at 10 mg/kg, po
# Assay type: ADME, organism-based
# Set-up: time < 6 hr, dose 10 mg/kg, route oral
# condition: plasma
reported-metric: log10(AUC(0-t) at 6 h) (log10 of the value in µM·h)

molecule-smiles	reported-metric	experimental-result
Nc1nc(Cl)c(-c2nc3ccccc3s2)c(N[C@@H]2C[C@H](CO)[C@@H](O)[C@H]2O)n1	log10(AUC(0-t) at 6 h)	-1.10
Cc1nc(NC(C)C)nc(N[C@@H]2C[C@H](CO)[C@@H](O)[C@H]2O)c1-c1nc2ccccc2s1	log10(AUC(0-t) at 6 h)	1.29
Cc1nc(NCc2ccccn2)nc(N[C@@H]2C[C@H](CO)[C@@H](O)[C@H]2O)c1-c1nc2ccccc2s1	log10(AUC(0-t) at 6 h)	0.53
Nc1ncc(-c2nc3ccccc3s2)c(N[C@@H]2C[C@H](CO)[C@@H](O)[C@H]2O)n1	log10(AUC(0-t) at 6 h)	-0.40
Cc1nc(N[C@@H](C)C(F)(F)F)nc(N[C@@H]2C[C@H](CO)[C@@H](O)[C@H]2O)c1-c1nc2ccccc2s1	log10(AUC(0-t) at 6 h)	1.11
Cc1nc(NCCN2CCOCC2)nc(N[C@@H]2C[C@H](CO)[C@@H](O)[C@H]2O)c1-c1nc2ccccc2s1	log10(AUC(0-t) at 6 h)	-0.70
CCNc1nc(C)c(-c2nc3ccccc3s2)c(N[C@@H]2C[C@H](CO)[C@@H](O)[C@H]2O)n1	log10(AUC(0-t) at 6 h)	0.79
